# target.entity: Type II 5α-Reductase from Human Prostate (Homo sapiens, UniProt P31213)
# Construct: The same procedure as above was used for preparations using tissue from prostate surgery; from tissue; host or cells: human prostate tissue from surgery, homogenate, 100,000×g pellet
# Sequence (P31213 whole entry): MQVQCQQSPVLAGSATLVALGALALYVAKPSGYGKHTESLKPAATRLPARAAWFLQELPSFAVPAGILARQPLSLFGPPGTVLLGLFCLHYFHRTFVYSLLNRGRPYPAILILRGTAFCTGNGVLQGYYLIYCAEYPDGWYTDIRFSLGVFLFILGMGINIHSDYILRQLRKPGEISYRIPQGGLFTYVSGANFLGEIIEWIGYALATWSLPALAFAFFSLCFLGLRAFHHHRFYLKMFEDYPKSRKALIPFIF
# assay.comment: Human Type II 5α-reductase assay (conversion of [3H]-testosterone to 5α-reduced metabolites)
# Assay type: biochemical
# condition.label: pH 5.5, 0.3 μM; sodium acetate pH 5.5, 25°, 30 min; compared to control reaction mixtures; read-out: percent inhibition of Type II AR
parameter.measured: inhibition at 0.3 µM (%)

| smiles.repr | parameter.measured | measurement.units | measured |
| --- | --- | --- | --- |
| CN1C(=O)CC[C@]2(C)c3ccc(-c4nc5c(Cl)cccc5s4)cc3CC[C@@H]12 | inhibition at 0.3 µM | % | 41 |
| C[C@]12CCC(=O)N[C@@H]1CCc1cc(Sc3cccc4cccnc34)ccc12 | inhibition at 0.3 µM | % | 48 |
| CN1C(=O)CC[C@]2(C)c3ccc(-c4cccs4)cc3CC[C@@H]12 | inhibition at 0.3 µM | % | 28 |
| CN1C(=O)CC[C@]2(C)c3ccc(-c4cccc(C(=O)NC(C)(C)C)c4)cc3CC[C@@H]12 | inhibition at 0.3 µM | % | 5 |
| CN(C)c1ccc(-c2ccc3c(c2)CC[C@H]2N(C)C(=O)CC[C@]32C)cc1 | inhibition at 0.3 µM | % | 31 |
| CN1C(=O)CC[C@]2(C)c3ccc(-c4cc(C(C)(C)C)c(O)c(C(C)(C)C)c4)cc3CC[C@@H]12 | inhibition at 0.3 µM | % | 21 |
| CN1C(=O)CC[C@]2(C)c3ccc(-c4cc(F)c(F)cc4F)cc3CC[C@@H]12 | inhibition at 0.3 µM | % | 40 |
| CN1C(=O)CC[C@]2(C)c3ccc(-c4cnc5ccccc5c4)cc3CC[C@@H]12 | inhibition at 0.3 µM | % | 60 |
| CNS(=O)(=O)c1ccc(-c2ccc3c(c2)CC[C@H]2N(C)C(=O)CC[C@]32C)cc1 | inhibition at 0.3 µM | % | 27 |
| CN1C(=O)C=C[C@]2(C)c3ccc(-c4cccc5ccccc45)cc3CC[C@@H]12 | inhibition at 0.3 µM | % | 49 |
| CN1C(=O)CC[C@]2(C)c3ccc(-c4nc5ccc(Cl)cc5s4)cc3CC[C@@H]12 | inhibition at 0.3 µM | % | 40 |
| CN1C(=O)CC[C@]2(C)c3ccc(-c4cccc(NC(=O)C(C)(C)C)c4)cc3CC[C@@H]12 | inhibition at 0.3 µM | % | 32 |
| CN1C(=O)CC[C@]2(C)c3ccc(-c4ccc5c(c4)OCCO5)cc3CC[C@@H]12 | inhibition at 0.3 µM | % | 26 |
| C[C@]12CCC(=O)N[C@@H]1CCc1cc(Sc3cccc(Cl)c3)ccc12 | inhibition at 0.3 µM | % | 59 |
| CN1C(=O)CC[C@]2(C)c3ccc(-c4ccc(F)cc4)cc3CC[C@@H]12 | inhibition at 0.3 µM | % | 12 |
| CN1C(=O)CC[C@]2(C)c3ccc(Sc4cnc5ccccc5n4)cc3CC[C@@H]12 | inhibition at 0.3 µM | % | 71 |
| CN1C(=O)CC[C@]2(C)c3ccc(-c4ccc(F)c(F)c4F)cc3CC[C@@H]12 | inhibition at 0.3 µM | % | 27 |
| Cc1cccc(Sc2ccc3c(c2)CC[C@H]2NC(=O)CC[C@]32C)c1 | inhibition at 0.3 µM | % | 40 |
| CN1C(=O)CC[C@]2(C)c3ccc(Sc4n[nH]c5ccccc45)cc3CC[C@@H]12 | inhibition at 0.3 µM | % | 70 |
| CN1C(=O)CC[C@]2(C)c3ccc(SCc4nc5ccccc5s4)cc3CC[C@@H]12 | inhibition at 0.3 µM | % | 33 |
| COc1cccc(Sc2ccc3c(c2)CC[C@H]2NC(=O)CC[C@]32C)c1 | inhibition at 0.3 µM | % | 39 |
| CN1C(=O)CC[C@]2(C)c3ccc(Sc4ccc5cccc(F)c5n4)cc3CC[C@@H]12 | inhibition at 0.3 µM | % | 80 |
| COc1ccc(-c2ccc3c(c2)CC[C@H]2N(C)C(=O)CC[C@]32C)cc1 | inhibition at 0.3 µM | % | 16 |
| C[C@]12CCC(=O)N[C@@H]1CCc1cc(-c3cnc4ccccc4c3)ccc12 | inhibition at 0.3 µM | % | 45 |
| CCCc1cccc2sc(Sc3ccc4c(c3)CC[C@H]3N(C)C(=O)CC[C@]43C)nc12 | inhibition at 0.3 µM | % | 79 |
| COc1ccc2nc(Sc3ccc4c(c3)CC[C@H]3N(C)C(=O)CC[C@]43C)sc2c1 | inhibition at 0.3 µM | % | 51 |
| CN1C(=O)CC[C@]2(C)c3ccc(-c4cccc(NC(=O)c5ccccc5)c4)cc3CC[C@@H]12 | inhibition at 0.3 µM | % | 27 |
| C[C@]12CCC(=O)N[C@@H]1CCc1cc(-c3cccc4ccccc34)ccc12 | inhibition at 0.3 µM | % | 10 |
| C[C@]12CCC(=O)N[C@@H]1CCc1cc(Sc3ccc(F)cc3)ccc12 | inhibition at 0.3 µM | % | 25 |
| CC(=O)N1CCc2cc(-c3ccc4c(c3)CC[C@H]3N(C)C(=O)CC[C@]43C)ccc21 | inhibition at 0.3 µM | % | 29 |
| Cc1ccc(S(=O)(=O)n2ccc3cc(-c4ccc5c(c4)CC[C@H]4N(C)C(=O)CC[C@]54C)ccc32)cc1 | inhibition at 0.3 µM | % | 67 |
| C[C@]12CCC(=O)N[C@@H]1CCc1cc(CSc3ccccc3)ccc12 | inhibition at 0.3 µM | % | 24 |
| CN1C(=O)CC[C@]2(C)c3ccc(Sc4nc5c(Br)cccc5s4)cc3CC[C@@H]12 | inhibition at 0.3 µM | % | 88 |

====

Listed compounds paired with reported inhibition at 0.3 µM
# target.entity: Type I 5α-Reductase from Human Scalp (Homo sapiens)
# Construct: Scalp punch biopsies from graft recipient sites were obtained from human hair transplant procedures; from tissue; host or cells: human scalp punch biopsies (hair transplant graft recipient sites), homogenate, 100,000×g pellet
# Sequence (P18405 whole entry): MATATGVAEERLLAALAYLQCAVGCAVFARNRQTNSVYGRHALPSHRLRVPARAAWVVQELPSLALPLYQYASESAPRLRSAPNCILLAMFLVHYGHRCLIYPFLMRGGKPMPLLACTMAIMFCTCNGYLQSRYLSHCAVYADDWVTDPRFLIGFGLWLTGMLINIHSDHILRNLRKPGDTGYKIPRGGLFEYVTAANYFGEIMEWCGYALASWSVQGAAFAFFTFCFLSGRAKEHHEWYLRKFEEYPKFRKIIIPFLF
# assay.comment: Human Type I 5α-reductase assay (conversion of [3H]-testosterone to 5α-reduced metabolites)
# Assay type: biochemical
# condition.label: pH 7.5, 0.3 μM; 50 nM [3H]-testosterone, pH 7.5, 25°, 180 min; compared to control reaction mixtures; read-out: percent inhibition of Type I AR
parameter.measured: inhibition at 0.3 µM (%)

| smiles.repr | parameter.measured | measured |
| --- | --- | --- |
| CN1C(=O)CC[C@]2(C)c3ccc(-c4ccc(C(F)(F)F)cn4)cc3CC[C@@H]12 | inhibition at 0.3 µM | 31 |
| CN1C(=O)CC[C@]2(C)c3ccc(-c4nc5cc(Cl)c(Cl)cc5s4)cc3CC[C@@H]12 | inhibition at 0.3 µM | 56 |
| CN1C(=O)CC[C@]2(C)c3ccc(NC(=O)c4cccc(N)c4)cc3CC[C@@H]12 | inhibition at 0.3 µM | 18 |
| CN1C(=O)CC[C@]2(C)c3ccc(-c4nc5ccccc5[nH]4)cc3CC[C@@H]12 | inhibition at 0.3 µM | 38 |
| CN1C(=O)CC[C@]2(C)c3ccc(-c4ccc(F)c(C(F)(F)F)c4)cc3CC[C@@H]12 | inhibition at 0.3 µM | 3 |
| CN1C(=O)CC[C@]2(C)c3ccc(-c4cccc([N+](=O)[O-])c4)cc3CC[C@@H]12 | inhibition at 0.3 µM | 66 |
| CN1C(=O)CC[C@]2(C)c3ccc(-c4ccc(COc5ccc(F)cc5)s4)cc3CC[C@@H]12 | inhibition at 0.3 µM | 91 |
| CN1C(=O)CC[C@]2(C)c3ccc(-c4ccc([N+](=O)[O-])s4)cc3CC[C@@H]12 | inhibition at 0.3 µM | 93 |
| CN1C(=O)CC[C@]2(C)c3ccc(Sc4ccc5cccc(F)c5n4)cc3CC[C@@H]12 | inhibition at 0.3 µM | 82 |
| CN1C(=O)CC[C@]2(C)c3ccc(C(=O)OC(c4ccccc4)c4ccccc4)cc3CC[C@@H]12 | inhibition at 0.3 µM | 35 |
| C[C@]12CCC(=O)N[C@@H]1CCc1cc(Sc3ccccc3F)ccc12 | inhibition at 0.3 µM | 29 |
| CN1C(=O)CC[C@]2(C)c3ccc(-c4n[nH]c5ccccc45)cc3CC[C@@H]12 | inhibition at 0.3 µM | 36 |
| C[C@]12CCC(=O)N[C@@H]1CCc1cc(Sc3cccc4cccnc34)ccc12 | inhibition at 0.3 µM | 22 |
| CN1C(=O)CC[C@]2(C)c3ccc(Sc4n[nH]c5ccccc45)cc3CC[C@@H]12 | inhibition at 0.3 µM | 71 |
| CN1C(=O)CC[C@]2(C)c3ccc(CCCc4ccccc4)cc3CC[C@@H]12 | inhibition at 0.3 µM | 75 |
| CN1C(=O)CC[C@]2(C)c3ccc(-c4cccc5ncccc45)cc3CC[C@@H]12 | inhibition at 0.3 µM | 55 |
